Test system: A549/ATCC NSCLC
Assay: NCI-60 one-dose screen, 48 h (100 = growth as untreated, 0 = no growth, -100 = all killed)
Settings: 10 µM
Method: Growth inhibition of the A549/ATCC human Non-Small Cell Lung tumor cell line is measured as a screen for anti-cancer activity. Cells are grown in 96 well plates and exposed to the test compound for 48 hours. Compounds are tested at a single concentration, which is 10^-5 M for most compounds. The reported endpoint is percent growth (GI% or GIPRCNT), where numbers from 0 - 100% represent growth inhibition, and numbers from -100% - 0 represent cell death. […]
Compounds without any hit were thinned out: in the full panel of roughly 83,000, 20% have a hit.
I'd be grateful if you could share measured growth for these entries.
Numbers only, in %.

INSERT INTO measurements (compound, tgt, test_readout, number) VALUES
  ('O=C1C=CC(=O)N1c1ccc(I)cc1Cl', 'A549/ATCC NSCLC', 'growth', 46),
  ('CC(=O)OC(OC(C)=O)C1CCCO1 (stereo unspecified)', 'A549/ATCC NSCLC', 'growth', 101),
  ('O=C(c1ccc(Cl)cc1)c1ccccc1Cl', 'A549/ATCC NSCLC', 'growth', 95.1),
  ('Cc1cc(=O)n(-c2ccc(F)cc2)[nH]1', 'A549/ATCC NSCLC', 'growth', 102),
  ('COc1cc2c(cc1O)CC[C@@H]1C2CC[C@@]2(C)C1CC[C@@H]2O (stereo partly specified)', 'A549/ATCC NSCLC', 'growth', 13.9),
  ('CCC(O)CC(CC)CO (stereo unspecified)', 'A549/ATCC NSCLC', 'growth', 105),
  ('Cc1cccc([N+](=O)[O-])c1Cl', 'A549/ATCC NSCLC', 'growth', 104),
  ('O=C1C=C(Nc2ccc([N+](=O)[O-])cc2)c2ccccc2C1=O', 'A549/ATCC NSCLC', 'growth', 33.3);

Below are some compounds; for each one, tell me its growth.
1. CC(C)(C)c1cc(O)c(C(C)(C)C)cc1O
2. O=C(Nc1ccccc1C(=O)NCC1CC1)c1cccs1
3. CC1CCCCN1C(=S)Nc1ccc(S(=O)(=O)N2CCCCC2)cc1 (stereo unspecified)

Output:
1. 87.4
2. 102
3. 101

###

Tested on: MALME-3M melanoma
Assay: NCI-60 one-dose screen, 48 h (100 = growth as untreated, 0 = no growth, -100 = all killed)
Conditions: 10 µM
Procedure: Cells are grown in 96 well plates and exposed to the test compound for 48 hours. Compounds are tested at a single concentration, which is 10^-5 M for most compounds. The reported endpoint is percent growth (GI% or GIPRCNT), where numbers from 0 - 100% represent growth inhibition, and numbers from -100% - 0 represent cell death. For example, a value of 40 represents 60% growth inhibition. A value of 0 means no net growth occurred over the course of the experiment. […]
About 83,000 compounds went through this panel and 20% of them were active in at least one assay; those are over-represented in the sample as a whole. The source made the active and inactive calls. How the source made its calls: active means growth percent below 10; inactive means the rest.
test-readout: growth

Field: example entries. Status: answers known.
INSERT INTO measurements (molecule, test_readout, result) VALUES
  ('Oc1ccc2c(c1)OCC1(O)Cc3cc(O)c(O)cc3C21 (stereo not drawn)', 'growth', '88.8% (inactive)'),
  ('c1ccc2c(N3CCCCC3)ncnc2c1', 'growth', '142% (inactive)'),
  ('O=C1c2ccccc2C(=O)N1OCc1ccccc1', 'growth', '98.2% (inactive)'),
  ('COc1cc(/C=C(\C#N)C(=O)c2ccccc2)ccc1OCc1ccccc1', 'growth', '86.1% (inactive)'),
  ('NC(=S)NN=C1CCCC1', 'growth', '85.3% (inactive)');

Give growth for each of the items listed below.
1. CN(C)Cc1cc(C(C)(C)CC(C)(C)C)ccc1O
2. C/C(=C\c1cc(Cl)ccc1OCC(=O)O)[N+](=O)[O-]
3. CC(=Nc1ccccc1)C1=C(O)C(Cc2cccc(F)c2)NC1=O (stereo not drawn)
4. CN(C)c1ccc2oc(=O)c3ccccc3c2c1
5. CCCCC(O)c1ccccc1 (stereo not drawn)
6. O=C(NCc1ccco1)Nc1c(Cl)cc(Cl)cc1Cl

Output:
100% (inactive)
127% (inactive)
39.8% (inactive)
97.6% (inactive)
102% (inactive)
97.3% (inactive)

Give growth for each of the items listed below.
1. CN1C(=O)CN2CCc3ccccc3C2c2cc(Cl)ccc21 (stereo not drawn)
2. CC(C)CCOC(=O)c1ccccc1
3. C=C1CC/C=C(\C)C(=O)C[C@@H]2[C@@H]1CC2(C)C
4. O=C(CCl)N1CCN(C/C=C/c2ccccc2)CC1
5. CC1(C)Nc2cccc3c(N=Nc4ccc(N=Nc5ccccc5)c5ccccc45)ccc(c23)N1

Output:
1. 94.3% (inactive)
2. 96.9% (inactive)
3. 103% (inactive)
4. 83% (inactive)
5. 132% (inactive)

# return growth for each item in the list
1. CC(=O)c1sc2c(c1OC(=O)c1ccc(Cl)cc1Cl)c(=O)n(-c1ccccc1)c(=S)n2-c1ccccc1
2. C=C[Si](OC(C)=O)(OC(C)=O)OC(C)=O

Output:
1. -79.2% (active)
2. 85.6% (inactive)

###

Assign growth to each entry below.
system: MDA-MB-435 melanoma; assay: NCI-60 one-dose screen, 48 h (100 = growth as untreated, 0 = no growth, -100 = all killed); conditions: 10 µM
This is part of a sample that, as a whole, favours compounds with a hit. Of some 83,000 tested, about 20% had one in any assay.
Answers are plain numbers, in %.

INSERT INTO assay_data (compound, test_readout, unit_tag, number) VALUES
  ('O=C(Cc1ccc(OCc2ccccc2)cc1)NCc1ccc2c(c1)OCO2', 'growth', '%', -42.4),
  ('c1cc[n+](C2c3ccccc3C([n+]3ccccc3)c3ccccc32)cc1 (configuration not stated)', 'growth', '%', 79.3),
  ('CCOc1ccc(Br)cc1/C=N\N=C\c1cc(Br)ccc1OCC', 'growth', '%', 103);

# batch: return growth for each of the 4 compounds below
1. CC1CCC2C(C)(C)C3CC12CC1OC13C (configuration not stated)
2. COc1ccc(-c2cc(-c3cc(-c4ccc(OC)cc4)nc(N)n3)nc(N)n2)cc1
3. CCc1nc(N)nc(N)c1-c1ccc(Cl)cc1
4. OC1CCCc2ccccc21 (configuration not stated)

Output:
1. 107
2. 97.5
3. 35
4. 104

###

Give measured growth for each item. Keep answers brief.
test system: SN12C renal; assay: NCI-60 one-dose screen, 48 h (100 = growth as untreated, 0 = no growth, -100 = all killed); conditions: 10 µM
The panel holds about 83,000 compounds, 20% with a hit somewhere; the sample as a whole holds those more often.
One number for each entry, in %.

Here are 3 compounds together with their reported answers.
INSERT INTO results (compound, number) VALUES
  ('O=[N+]([O-])c1cccc(N=Nc2ccc(O)cc2O)c1', 79.6),
  ('CCCCCCCCO', 97.5),
  ('COc1cc2c3cc1Oc1c(OC)c(OC)cc4c1C(Cc1ccc(O)c(c1)Oc1ccc(cc1)CC3N(C)CC2)N(C)CC4 (configuration not stated)', 16.9);

Kindly give each listed record's growth.
1. NC(=S)N/N=C/c1ccc(N)cc1
2. CC(=O)Nc1c(C)cc(C)cc1C
3. NC(C(=O)O)C(O)c1ccco1 (configuration not stated)
4. O=[N+]([O-])c1ccc(O)c(S(=O)(=O)O)c1

Output:
[108, 111, 111, 90.2]

###

system: 786-0 renal; test: NCI-60 one-dose screen, 48 h (100 = growth as untreated, 0 = no growth, -100 = all killed); conditions: 10 µM
The panel holds about 83,000 compounds, 20% with a hit somewhere; the sample as a whole holds those more often.
Kindly state growth for each of the entries shown.
Give bare numbers, in %.

INSERT INTO assay_data (compound, tgt, number) VALUES
  ('CC(=O)NCc1cc(C)c(C)cc1C', '786-0 renal', 97.8);

Give one value of growth per listed compound.
1. CC(=O)NC(N)=S
2. NC(C(=O)O)c1ccc([N+](=O)[O-])cc1 (centres undefined)
3. Nc1ccc(NC(=O)c2cccc(N)c2)cc1

Output:
1: 105; 2: 109; 3: 101

###

tested on: NCI-H23 lung; assay: NCI-60 one-dose screen, 48 h; conditions: 10 µM
The panel holds about 83,000 compounds, 20% with a hit somewhere; the sample as a whole holds those more often. Activity calls are given as the source filed them. How the source made its calls: active means growth percent below 10; inactive means the rest.
Hi! Could you answer with just one of these? YES for active, NO for inactive

Examples from the recorded data:
INSERT INTO results (compound, class_assignment) VALUES
  ('CCNc1nc2c(cnn2C)c(=O)[nH]1', 'NO'),
  ('Cc1cc(C(O)(c2ccc(Nc3ccccc3)cc2)c2ccc(Nc3ccc(S(=O)(=O)O)cc3)cc2)ccc1N (stereo not given)', 'YES'),
  ('CCN=c1cc2sc3cc(NCC)c(C)cc3nc-2cc1C', 'YES'),
  ('CN(c1ccccc1)c1ncnc2c1ncn2C', 'NO'),
  ('CC(C)C(C#N)(C(C)C)C(C)C', 'NO');

Task: Could you please tell me the result logged for O=C(O)c1ccccc1NCc1ccco1 in this assay?
Output: NO
